target: PABPN1 (Homo sapiens, UniProt Q86U42); construct: recombinant full-length (306 aa for normal PABPN1, 10-Ala tract, N-terminus M-(A)10-GAAGGRG); details in supplement S1; assay: ANS fluorescence titration
Sequence (Q86U42 whole entry): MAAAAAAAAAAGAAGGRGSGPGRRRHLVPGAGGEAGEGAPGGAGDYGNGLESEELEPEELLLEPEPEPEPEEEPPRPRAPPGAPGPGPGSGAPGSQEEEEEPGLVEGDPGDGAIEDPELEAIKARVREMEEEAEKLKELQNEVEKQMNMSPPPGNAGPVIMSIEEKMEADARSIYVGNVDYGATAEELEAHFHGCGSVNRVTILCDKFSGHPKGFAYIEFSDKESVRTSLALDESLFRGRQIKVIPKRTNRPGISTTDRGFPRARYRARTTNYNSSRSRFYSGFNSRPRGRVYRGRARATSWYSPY
RECORDED_METRIC: Kd (µM)
Answer with a number only, understood to be in µM.

Enquiry: # return recorded Kd for input O=S(=O)(O)c1cccc2cccc(Nc3ccccc3)c12 [1-Anilino naphthalene-8-sulfonic acid]
Return: 75

====

molecular target: PABPN1 (Homo sapiens, UniProt Q86U42, INS11AAAAAAA); construct: recombinant full-length (306 aa for normal PABPN1, 10-Ala tract, N-terminus M-(A)10-GAAGGRG); details in supplement S1; assay: ANS fluorescence titration
Sequence (Q86U42 with tags, fused parts or gaps INS11AAAAAAA): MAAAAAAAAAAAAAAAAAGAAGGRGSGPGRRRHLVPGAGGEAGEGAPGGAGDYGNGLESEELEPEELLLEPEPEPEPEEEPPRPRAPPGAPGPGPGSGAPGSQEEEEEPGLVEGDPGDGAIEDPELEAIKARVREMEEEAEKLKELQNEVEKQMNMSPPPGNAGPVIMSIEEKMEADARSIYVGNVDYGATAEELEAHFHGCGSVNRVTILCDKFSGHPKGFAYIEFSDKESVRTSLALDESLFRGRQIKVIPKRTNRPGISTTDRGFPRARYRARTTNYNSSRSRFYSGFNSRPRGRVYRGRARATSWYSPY
RECORDED_METRIC: pKd
For clarity, pKd is expressed as the negative log10 of concentration in mol/L.

Enquiry: Please report the measured pKd for O=S(=O)(O)c1cccc2cccc(Nc3ccccc3)c12 [1-Anilino naphthalene-8-sulfonic acid] tested on PABPN1 (Homo sapiens, UniProt Q86U42, INS11AAAAAAA).
Return: 4.38
